Provenance of the data: ChEMBL document CHEMBL4334531

experiment: Cytotoxicity against human THP1 cells assessed as cell viability at 40 uM after 72 hrs by SRB assay relative to control; assay type: cell-based; settings: THP-1 cells, read-out: Activity
property measured: viability at 72 h, 40 µM

Completed entries (count: 2):
* CC(C)(O)C1=CC[C@@](C)(O)[C@H]2CC[C@@](C)(O)[C@H]2C1 | > 80%
* COC(C)(C)C1=CC[C@@](C)(O)[C@H]2CC[C@](C)(O)[C@H]2C1 | > 80%

We now examine a further compound.
**Query** I am curious: what viability at 72 h, 40 µM value has been reported for C=C1CC[C@@H](O)[C@]2(C)CC[C@@](O)(C(C)(C)O)C[C@@H]12 ?
**Result** > 80%
